target-of-assay: T-type calcium channel (Homo sapiens, UniProt O95180)
Sequence (O95180 whole entry): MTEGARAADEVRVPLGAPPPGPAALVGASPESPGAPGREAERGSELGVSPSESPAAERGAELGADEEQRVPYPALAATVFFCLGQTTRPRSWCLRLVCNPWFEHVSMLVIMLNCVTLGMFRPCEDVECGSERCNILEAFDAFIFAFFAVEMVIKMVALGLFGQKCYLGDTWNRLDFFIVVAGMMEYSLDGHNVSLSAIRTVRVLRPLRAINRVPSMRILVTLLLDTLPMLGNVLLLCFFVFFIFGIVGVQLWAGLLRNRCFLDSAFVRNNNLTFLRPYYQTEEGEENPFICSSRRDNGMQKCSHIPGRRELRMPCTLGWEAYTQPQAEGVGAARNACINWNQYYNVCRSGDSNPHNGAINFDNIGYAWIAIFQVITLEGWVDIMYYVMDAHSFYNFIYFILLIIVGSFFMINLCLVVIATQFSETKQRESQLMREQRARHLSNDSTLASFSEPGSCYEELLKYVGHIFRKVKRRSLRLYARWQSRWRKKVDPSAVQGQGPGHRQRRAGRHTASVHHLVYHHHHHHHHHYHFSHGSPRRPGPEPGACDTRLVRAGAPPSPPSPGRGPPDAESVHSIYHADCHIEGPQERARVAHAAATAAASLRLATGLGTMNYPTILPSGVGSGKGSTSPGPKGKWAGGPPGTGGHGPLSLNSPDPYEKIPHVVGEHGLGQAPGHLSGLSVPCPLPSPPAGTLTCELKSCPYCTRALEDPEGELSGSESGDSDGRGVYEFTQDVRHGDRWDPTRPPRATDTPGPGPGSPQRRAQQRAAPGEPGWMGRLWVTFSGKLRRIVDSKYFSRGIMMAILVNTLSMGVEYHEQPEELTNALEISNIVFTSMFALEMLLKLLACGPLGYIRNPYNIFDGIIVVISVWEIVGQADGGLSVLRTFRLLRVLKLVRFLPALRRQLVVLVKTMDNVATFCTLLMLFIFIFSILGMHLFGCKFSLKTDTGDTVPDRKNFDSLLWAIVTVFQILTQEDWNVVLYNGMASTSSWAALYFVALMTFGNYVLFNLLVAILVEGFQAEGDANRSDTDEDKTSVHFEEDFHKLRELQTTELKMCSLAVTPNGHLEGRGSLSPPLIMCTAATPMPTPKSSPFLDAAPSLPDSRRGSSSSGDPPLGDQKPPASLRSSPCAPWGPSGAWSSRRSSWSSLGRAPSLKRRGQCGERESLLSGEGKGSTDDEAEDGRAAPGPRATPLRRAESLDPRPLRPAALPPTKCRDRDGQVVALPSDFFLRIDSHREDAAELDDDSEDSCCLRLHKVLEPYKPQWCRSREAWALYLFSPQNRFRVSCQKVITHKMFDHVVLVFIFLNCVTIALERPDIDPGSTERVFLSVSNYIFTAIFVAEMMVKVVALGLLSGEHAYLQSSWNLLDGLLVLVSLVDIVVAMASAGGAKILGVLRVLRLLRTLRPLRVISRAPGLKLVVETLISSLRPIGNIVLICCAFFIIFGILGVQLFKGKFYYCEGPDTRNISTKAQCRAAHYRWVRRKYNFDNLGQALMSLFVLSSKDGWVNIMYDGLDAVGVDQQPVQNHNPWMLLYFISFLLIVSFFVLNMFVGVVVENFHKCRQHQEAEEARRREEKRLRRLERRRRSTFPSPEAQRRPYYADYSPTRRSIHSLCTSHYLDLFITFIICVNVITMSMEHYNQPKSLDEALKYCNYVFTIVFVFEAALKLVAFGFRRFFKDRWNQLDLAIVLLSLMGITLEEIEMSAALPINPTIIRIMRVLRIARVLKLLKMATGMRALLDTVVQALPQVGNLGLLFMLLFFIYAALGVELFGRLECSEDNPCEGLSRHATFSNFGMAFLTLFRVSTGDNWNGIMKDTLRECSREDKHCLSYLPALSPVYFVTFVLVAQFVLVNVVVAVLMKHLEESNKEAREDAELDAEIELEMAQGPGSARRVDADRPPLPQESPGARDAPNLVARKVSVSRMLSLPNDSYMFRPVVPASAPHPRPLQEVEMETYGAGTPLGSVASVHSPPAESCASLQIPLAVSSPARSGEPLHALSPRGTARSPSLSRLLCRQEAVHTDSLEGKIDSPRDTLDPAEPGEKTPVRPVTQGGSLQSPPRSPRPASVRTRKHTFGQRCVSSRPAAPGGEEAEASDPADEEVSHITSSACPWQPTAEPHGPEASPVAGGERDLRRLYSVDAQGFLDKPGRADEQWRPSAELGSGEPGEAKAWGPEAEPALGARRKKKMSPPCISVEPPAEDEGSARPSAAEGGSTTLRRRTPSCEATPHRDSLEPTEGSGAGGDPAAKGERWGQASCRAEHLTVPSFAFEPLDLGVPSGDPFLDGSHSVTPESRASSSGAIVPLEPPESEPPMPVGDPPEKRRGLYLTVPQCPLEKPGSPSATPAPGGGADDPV
test-details: T-type channel blocking, FLIPR data (Table 6)
Assay type: cell-based
test-settings: CAv3.2, inactivated state, read-out: CAv3.2 IC50 Inact.
pIC50: −log10 of the molar value.
pIC50 overview
endpoint-name: pIC50

- given-smiles: "CC(C)(C[C@H]1C[C@@H](NC(=O)c2cnc(C(F)(F)F)nc2)C1)S(=O)(=O)c1cccc(C(F)(F)F)c1"
  recorded-number: 5.64
- given-smiles: "CC(C)([C@H]1C[C@@H](Nc2ccnc(C(F)(F)F)n2)C1)S(=O)(=O)c1cccc(OC(F)(F)F)c1"
  recorded-number: 5.41
- given-smiles: "O=C(NC[C@H]1C[C@H](S(=O)(=O)c2cccc(C(F)(F)F)c2)C1)c1ccc(C(F)(F)F)nc1"
  recorded-number: 5.00
